All figures here come from the supplement of paper PMC9170038.

Tested on: MS2 coat protein
Protocol text: apparent KD of MS2 coat protein; designed switch direction (-1 OFF switch, 1 ON switch): -1; higher = weaker reporter binding
Applied conditions: input ligand: none
# label = TRUE if apparent KD of MS2 coat protein >= 40 nM else FALSE

Sequence data	Qualitative label
GUGAGGGAGUGAGGAUAUCAGGGAGGUGGGAAAUGAGAAGGUACAUGAGGAUCACCCAUGUAAGAGUAGGGAAGAGAGAAGAGU [Default title] (Eterna round: R96, puzzle: Exclusion NG 1)	TRUE

**Q:** Kindly determine if apparent KD of MS2 coat protein recorded for GCGGACUAGAACGUGAGUUCUGAGACAUGAGGAUCACCCAUGUAGGAUAUCGAUUCGUUUCGAAUCGAGAAGGGCAUAGUCCGC [JL denovo 12] (Eterna round: R96, puzzle: Exclusion NG 3) is above or exactly 40 nM.
**A:** FALSE

**Q:** Check the entry UUUUGGCAGGUAAUUAUUAACAUGAGGAUCACCCAUGUGCAUCCAAAAUUACUUUUAGAUCAAGCUCGUCUUAUAUA [JR_STOV1_Sub088] (Eterna round: R97, puzzle: Sensor, turn-off variant 1) : does apparent KD of MS2 coat protein equal or exceed 40 nM?
**A:** FALSE

**Q:** Confirm if apparent KD of MS2 coat protein reported for the sequence UGUCUACAUGAGGAUCACCCAUGUCAGGAUAUGCUCGAUAUAUGGAAACAUAUAUCGAGCAGAAGGGACUAGCG [Jieuxxlusion 5 - Jieux - Exclusion 1] (Eterna round: R97, puzzle: Exclusion 1) is 40 nM or above.
**A:** FALSE

**Q:** Can CAUUAUUAUCGAGGAUAUCCUAUUGAAAUUCUGGGAGAAGGCGGACUCAACAUGAGGAUCACCCAUGUAAGACGGGUGCUAGGG [Ex NG1 #25] (Eterna round: R96, puzzle: Exclusion NG 1) be said to have apparent KD of MS2 coat protein at or above 40 nM?
**A:** TRUE

**Q:** Hello, I need to know if GUGAACUCGCUACUUACCAACAUGAGGAUCACCCAUGUGGGAGAAAGUGAAUAGCUAGUUGUUACGUCUUAAUCCAG [Eternabot (L1) Solution 47] (Eterna round: R97, puzzle: Sensor, turn-off variant 1) has measured apparent KD of MS2 coat protein not below 40 nM. Thanks!
**A:** FALSE

**Q:** Reported apparent KD of MS2 coat protein at or above 40 nM? AAAAUGUGAGGAUAUCACGGAGCUCCGCGUGACGAAGCUCCUGAGAAGGCACAUGAGGAUCACCCAUGUCCUGU [EX4 A.30] (Eterna round: R97, puzzle: Exclusion 4)
**A:** TRUE

**Q:** Identify whether the reported apparent KD of MS2 coat protein of the following sequence is 40 nM or greater: GGUACUCAAAGAGUACCAAUACGAACAUGAGGAUCACCCAUGUAGGAUAUGCUACUCAAAGAGUAGCAGAAGGAUAUGAACCCU [Far Half Aptamer v8] (Eterna round: R96, puzzle: Exclusion NG 3)
**A:** FALSE

**Q:** Exam item: decide whether the reported apparent KD of MS2 coat protein for ACAAAGCGAGGAUAUACACAGGUGUCCUGGGCGUCAAAUCGACAUGAGGAUCACCCAUGUAGAAGGCGCAAUAG [Diedated] (Eterna round: R97, puzzle: Exclusion 2) is at least 40 nM.
**A:** FALSE
